Sourced from PubChem BioAssay (Tox21)

biological target: Nuclear receptor subfamily 1 group I member 3 (Homo sapiens); test: qHTS assay to identify small molecule antagonists of the constitutive androstane receptor (CAR) signaling pathway (AID 1224838); details: HepG2-CYP2B6-hCAR luciferase, CITCO-stimulated, 24 h; series mostly up to 92.4 µM;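 note: HepG2 cells stably expressing hCAR with CYP2B6 luciferase reporter stimulated by CITCO; nearly all actives have a fitted effect of over 40% in size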
Results filed as inconclusive are left out. Calls of active or inactive are those of the source. Calls come from the whole dose curve; as a rule, active = well fitted inhibition curve with a large enough effect in the repeat runs; inconclusive = weak or mixed curves, or effect the other way; inactive = no such curve, though single readings can be large or run the other way.
Select the correct class. Options are t (active), f (inactive) and nothing else.

Please review the following examples before continuing.
>>> df
                                   molecule  label
0  COc1ccc2cc(S(=O)(=O)N[C@H](CC(=O)N[C@H](Cc3ccc(CN4[C@H](C)CCC[C@@H]4C)cc3)C(=O)N(C)C(C)C)c3ccc4c(c3)OCO4)ccc2c1      t
1                            NC(=O)c1cccnc1      f
2                 CCCc1cc(=O)[nH]c(=S)[nH]1      f
3       CCCCCCCCCCCCCCCC[N+](C)(C)Cc1ccccc1      f
4           C[C@](N)(Cc1ccc(O)c(O)c1)C(=O)O      f
5                Cn1c(=O)c2c(ncn2C)n(C)c1=O      f
6                     CCCCOC(=O)c1ccc(O)cc1      f
7       Cc1cc(C)nc(NS(=O)(=O)c2ccc(N)cc2)n1      f

Query: Which outcome did this test record for the molecule CN1[C@@H]2CC(OC(=O)[C@H](CO)c3ccccc3)C[C@H]1[C@@H]1O[C@@H]12 (stereo not given in full) ?
Reply: f

Query: Which outcome did this test record for the molecule Cc1cc(=O)oc2cc(O)ccc12 ?
Reply: f

Query: Which outcome did this test record for the molecule Oc1ccccc1 ?
Reply: f

Query: Which outcome did this test record for the molecule NC(=O)n1c(O)c(C(=O)c2cccs2)c2cc(Cl)ccc21 ?
Reply: f

Query: Which outcome did this test record for the molecule NC1CCCCC1 ?
Reply: f

Query: Which outcome did this test record for the molecule COc1cccc(O)c1O ?
Reply: f

Query: Which outcome did this test record for the molecule CN(C)CCOC(C)(c1ccccc1)c1ccccn1 (stereo not given) ?
Reply: f

Query: Which outcome did this test record for the molecule O=C1OC2(c3ccccc31)c1cc(Br)c(O)c(Br)c1Oc1c2cc(Br)c(O)c1Br ?
Reply: f

Query: Which outcome did this test record for the molecule Nc1ccc([N+](=O)[O-])cc1O ?
Reply: f

Query: Which outcome did this test record for the molecule CCCC[P+](CCCC)(CCCC)CCCC ?
Reply: f

Query: Which outcome did this test record for the molecule Nc1c(N=Nc2ccc(-c3ccc(N=Nc4cc(S(=O)(=O)O)c5ccccc5c4N)cc3)cc2)cc(S(=O)(=O)O)c2ccccc12 ?
Reply: t

Query: Which outcome did this test record for the molecule CCN(Cc1c(F)cccc1Cl)c1c([N+](=O)[O-])cc(C(F)(F)F)cc1[N+](=O)[O-] ?
Reply: f

Query: Which outcome did this test record for the molecule Cc1ncc([N+](=O)[O-])n1C ?
Reply: f

Query: Which outcome did this test record for the molecule C=C1CC[C@H](O)C/C1=C\C=C1/CCC[C@]2(C)[C@@H]([C@H](C)CCCC(C)C)CC[C@@H]12 ?
Reply: f

Query: Which outcome did this test record for the molecule C=CCc1ccc(O)c(OC)c1 ?
Reply: f

Query: Which outcome did this test record for the molecule C/C=C/C=C/C(=O)O ?
Reply: f

Query: Which outcome did this test record for the molecule O=C(O)c1ccccc1 ?
Reply: f
